Test system: Calu-3
assayRemarks: drug sensitivity score (DSS) for viability; higher = more toxic; extreme values may be limits of the assay
conditionDetails: 72 h
testReadout: drug sensitivity score
Answer using only a numeral; do not append any unit.

compound: Nc1nc2[nH]cc(CCc3ccc(C(=O)N[C@@H](CCC(=O)O)C(=O)O)cc3)c2c(=O)[nH]1 [pemetrexed]
reportedResult: 3.7

compound: COc1cc(C(=O)NCC2(N(C)C)CCCC2)cc(OC)c1OCc1ccccc1
reportedResult: 0.1

compound: O=C(NO)c1ccc(O)c(O)c1 [didox]
reportedResult: 0

compound: Cc1ccc(S(=O)(=O)Nc2ccc3c(c2)c(C(=O)C(F)(F)F)cn3CC(=O)N[C@@H](CC(C)C)C(=O)O)cc1 [NTRC-824]
reportedResult: 0

compound: CC(=O)/N=c1/sc(S(N)(=O)=O)nn1C [methazolamide]
reportedResult: 0

Request: Look at this compound and give its reported drug sensitivity score. CC(C)(C)C(=O)/C(=N/c1ccc(Cl)cc1)NNc1ccc(Cl)cc1
Response: 0

Request: How about this compound: Cc1cc(CN2CCN(c3c(Br)cnc4nc(-c5ccc(N6CCN(C)CC6)cc5)[nH]c34)CC2)no1
Response: 0

Request: Then what about the compound CC1(CN)Cc2ccccc2C1 [ORG-9768] ?
Response: 0

Request: // query: COc1ccc(CCN2CCN(CCCc3ccccc3)CC2)cc1OC [cutamesine]
Response: 0

====

// reported cell viability for each item listed
Test system: HepG2
assayRemarks: cell viability relative to DMSO; higher = less toxic
conditionDetails: 72 h; 1000 nM
Record the result as a number with its unit.

Request: Need cell viability of O=C(O)CCc1cc(I)c(Oc2ccc(O)cc2)c(I)c1 [diiodothyropropionic-acid] , thanks.
Response: 103%

Request: Same question, Cc1nc2ccc(NC(=O)Nc3ccnc4cccnc34)cc2o1 this time
Response: 92.8%

Request: Then CO/N=C(\C(=O)N[C@@H]1C(=O)N2C(C(=O)[O-])=C(C[n+]3ccn4ncccc43)CS[C@H]12)c1nsc(N)n1 [cefozopran] ?
Response: 104%

Request: Check CC(=O)Oc1ccccc1C(=O)Oc1cccc(CO[N+](=O)[O-])c1 [NO-ASA] too.
Response: 88.9%

Request: Try this molecule next: CC(=O)N[C@@H](CC(=O)O)C(=O)N[C@@H](CCC(=O)O)C(=O)O [spaglumic-acid]
Response: 114%

====

Tested on: Vero E6
assayRemarks: cell viability relative to DMSO; higher = less toxic
conditionDetails: 72 h; 10000 nM
testReadout: cell viability (%)
The reply should contain only the number, in %.

Some entries whose results are on file:
compound: NC(=O)c1cccc2cn(-c3ccc([C@@H]4CCCNC4)cc3)nc12 [niraparib]
cell viability, %: 73

compound: COc1ccc(CCc2nc3cc(-c4c(C)noc4C)ccc3n2C[C@H](C)N2CCOCC2)cc1Cl [SGC-CBP30]
cell viability, %: 53.9

compound: CC(=O)N[C@@H](CC(=O)O)C(=O)N[C@@H](CCC(=O)O)C(=O)O [spaglumic-acid]
cell viability, %: 100

For the next question, use this compound.
Request: Param item = Cc1cc(O)c2c(c1)C(=O)c1cccc(O)c1C2=O [chrysophanic-acid] ; retrieve measured cell viability.
Response: 96.1

====

Test system: Calu-3
assayRemarks: cell viability relative to DMSO; higher = less toxic
conditionDetails: 72 h; 10 nM
Listed compounds paired with reported cell viability
Write the answer as a number in %, unit excluded.

compound: CCc1ccc(C(=O)C(C)CN2CCCCC2)cc1 (stereo unspecified) [eperisone]
unit: %
cell viability: 93.7

compound: C[C@]12CC[C@@H]3c4ccc(O)cc4CC[C@H]3[C@@H]1C[C@@H](O)[C@@H]2O [estriol]
unit: %
cell viability: 96.5

compound: COc1cc2c3cc1Oc1cc(ccc1O)C[C@@H]1c4c(cc(OC)c(O)c4Oc4ccc(cc4)C[C@@H]3N(C)CC2)CC[N+]1(C)C [tubocurarine]
unit: %
cell viability: 102

Request: Entry under review: CC(O)COC[C@H]1O[C@@H]2O[C@H]3[C@H](O)[C@@H](O)[C@@H](O[C@H]4[C@H](O)[C@@H](O)[C@@H](O[C@H]5[C@H](O)[C@@H](O)[C@@H](O[C@H]6[C@H](O)[C@@H](O)[C@@H](O[C@H]7[C@H](O)[C@@H](O)[C@@H](O[C@H]8[C@H](O)[C@@H](O)[C@@H](O[C@H]1[C@H](O)[C@H]2O)O[C@@H]8COCC(C)O)O[C@@H]7COCC(C)O)O[C@@H]6COCC(C)O)O[C@@H]5COCC(C)O)O[C@@H]4COCC(C)O)O[C@@H]3COCC(C)O (stereo partly drawn) [hydroxypropyl-beta-cyclodextrin] . Reported cell viability?
Response: 91.5

Request: Follow-up item: Nc1ccc(S(=O)(=O)Nc2ccc(Cl)nn2)cc1 [sulfachlorpyridazine]
Response: 91

Request: Next: C=CC(=O)Nc1cccc(Nc2nc(Nc3ccc(NC4CN(CCF)C4)cc3OC)ncc2C(F)(F)F)c1 [CNX-2006]
Response: 99.4
